Data provenance is patent US20240384268A1.

The reader will find reported TLR9 500 nM values listed item by item below.
# System Tested: human TLR9 (Homo sapiens, UniProt Q9NR96)
# Construct: HA; host or cells: 293XL-hTLR9-HA (HEK293)
# Sequence (Q9NR96 26-1032): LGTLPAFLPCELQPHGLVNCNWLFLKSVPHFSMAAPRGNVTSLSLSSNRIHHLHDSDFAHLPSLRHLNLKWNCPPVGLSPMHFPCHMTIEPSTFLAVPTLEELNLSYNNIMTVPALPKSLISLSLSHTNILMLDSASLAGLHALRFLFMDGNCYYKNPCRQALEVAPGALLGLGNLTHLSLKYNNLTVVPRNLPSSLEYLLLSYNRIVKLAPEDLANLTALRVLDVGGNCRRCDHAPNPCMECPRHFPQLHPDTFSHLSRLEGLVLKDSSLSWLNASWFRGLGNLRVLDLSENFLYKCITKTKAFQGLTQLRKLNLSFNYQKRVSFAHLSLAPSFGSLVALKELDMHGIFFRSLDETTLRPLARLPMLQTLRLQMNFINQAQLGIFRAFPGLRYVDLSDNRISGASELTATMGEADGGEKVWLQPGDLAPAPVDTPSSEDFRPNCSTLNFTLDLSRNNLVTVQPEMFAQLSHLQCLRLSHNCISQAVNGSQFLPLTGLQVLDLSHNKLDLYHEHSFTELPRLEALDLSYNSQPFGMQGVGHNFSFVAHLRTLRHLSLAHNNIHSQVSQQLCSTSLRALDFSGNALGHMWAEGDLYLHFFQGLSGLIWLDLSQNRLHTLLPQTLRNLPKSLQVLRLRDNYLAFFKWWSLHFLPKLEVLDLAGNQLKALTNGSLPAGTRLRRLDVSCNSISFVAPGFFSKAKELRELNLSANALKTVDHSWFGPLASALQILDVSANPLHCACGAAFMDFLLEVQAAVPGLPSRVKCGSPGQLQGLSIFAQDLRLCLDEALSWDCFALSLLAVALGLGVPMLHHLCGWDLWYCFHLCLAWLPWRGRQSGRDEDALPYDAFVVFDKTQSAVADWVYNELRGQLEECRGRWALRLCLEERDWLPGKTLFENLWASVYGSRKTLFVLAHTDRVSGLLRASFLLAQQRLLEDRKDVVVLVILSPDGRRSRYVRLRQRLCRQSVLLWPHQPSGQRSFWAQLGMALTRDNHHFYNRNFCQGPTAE
# Measurement Description: HEK-TLR9 NF-κB-luciferase reporter, ODN2006 stimulation
# Type: cell-based
# Assay Context: MOE-modified ASO at 500 nM; averaged NF-κB-Luciferase relative to ODN2006 condition
Measured Metric: TLR9 500 nM

1. CGTGTCTGGAAGCTTCCTTT (antisense; 2'-MOE modified, pattern not given here) [CTNN2B-808 MOE]; 0.259
2. GCGACTATACGCGCAATATG (antisense; 2'-MOE modified, pattern not given here) [NC5 2′MOE]; 0.035
3. GTGTCCTTGCACGTGGCTTC (antisense; 2'-MOE modified, pattern not given here) [EGFR-1015 MOE]; 0.641
4. CTGTGATCTTGACATGCTGC (antisense; 2'-MOE modified, pattern not given here) [EGFR-2790 MOE]; 0.298
5. GTCCTTGCACGTGGCTTCGT (antisense; 2'-MOE modified, pattern not given here) [EGFR-1013 MOE]; 0.602
6. CAATGTGATGGCCTCCCATC (antisense; 2'-MOE modified, pattern not given here) [HPRT-335 MOE]; 0.412
7. CTTACTTTCCGAGGTGTCCA (antisense; 2'-MOE modified, pattern not given here) [CAMSAP1-1739 MOE]; 0.531
8. TTGCCATGCTGGCTCGGACT (antisense; 2'-MOE modified, pattern not given here) [CAMSAP1-2584 MOE]; 0.534
